# assayInfo: Blood to plasma ratio and fraction unbound in plasma (PBPK input parameters)
# Type: in vitro ADME
# assaySetup: human, blood and plasma; input parameter of the PBPK model
measuredEndpoint: blood plasma ratio
Reply: number alone, nothing else.

Form field: reported blood plasma ratio of COc1cccc2c1CCOC2C1=NCCN1 (stereo not shown)
1.13

* * *

# assayInfo: Caco-2 permeability (PBPK input parameter)
# Format: in vitro ADME
# assaySetup: human, input parameter of the PBPK model
measuredEndpoint: Papp (×10⁻⁶ cm/s)
Reply numerically in ×10⁻⁶ cm/s, unit not repeated.

Form field: reported Papp of COc1cccc2c1CCOC2C1=NCCN1 (stereo not shown)
15.4

* * *

# assayInfo: First-in-man single-dose escalation study, plasma PK
# Assay type: in vivo
# assaySetup: both sexes, human, po, 25 ug, 25 μg single oral solution dose, mean, n = 6, healthy subjects, read-out: AUCinf
measuredEndpoint: AUC(0-inf) (ng·h/mL)
Reply numerically in ng·h/mL, unit not repeated.

Form field: reported AUC(0-inf) of COc1cccc2c1CCOC2C1=NCCN1 (stereo not shown) [tasipimidine]
0.186

* * *

# assayInfo: Renal clearance (PBPK input parameter)
# assaySetup: human, in vivo; input parameter of the PBPK model
measuredEndpoint: CL renal (mL/min)
Reply numerically in mL/min, unit not repeated.

Form field: reported CL renal of COc1cccc2c1CCOC2C1=NCCN1 (stereo not shown)
105

* * *

# assayInfo: Paroxetine co-treatment crossover PK study in healthy subjects
# Format: in vivo, human
# assaySetup: human, plasma, 10 ug; 10 μg oral, without paroxetine, mean, n = 5; read-out: t½ (converted)
measuredEndpoint: half-life (h)
Reply numerically in h, unit not repeated.

Form field: reported half-life of COc1cccc2c1CCOC2C1=NCCN1 (stereo not shown)
2.6

* * *

# assayInfo: Paroxetine co-treatment crossover PK study in healthy subjects
# Assay type: in vivo, human
# assaySetup: human, plasma, 10 ug; 10 μg oral, without paroxetine, mean, n = 5
measuredEndpoint: AUC(0-inf) (ng·h/mL)
Reply numerically in ng·h/mL, unit not repeated.

Form field: reported AUC(0-inf) of COc1cccc2c1CCOC2C1=NCCN1 (stereo not shown)
0.106

* * *

# assayInfo: First-in-man single-dose escalation study, plasma PK
# Type: in vivo
# assaySetup: both sexes, human, po, 50 ug, 50 μg single oral dose, corrected by CYP2D6 genotype based activity score, mean, n = 6, read-out: AUCinf * AS
measuredEndpoint: AUC(0-inf) (ng·h/mL)
Reply numerically in ng·h/mL, unit not repeated.

Form field: reported AUC(0-inf) of COc1cccc2c1CCOC2C1=NCCN1 (stereo not shown)
0.475
